Test system: MDCK
Test: Cytotoxicity against MDCK cells assessed as reduction in cell viability after 3 days by MTS assay
Format: cell-based, Canis lupus familiaris
Conditions: dog, mdck, 72 h
OUTCOME MEASURE: CC50 (µM)
Number in µM, nothing else.

Briefly, CC50 measured for CCCCCCS(=O)(=O)N[C@H]1C(=O)N[C@@H]2Cc3ccc(c(Cl)c3)Oc3cc4cc(c3O)Oc3ccc(cc3Cl)[C@@H](O[C@@H]3O[C@H](CO)[C@@H](O)[C@H](O)[C@H]3NC(C)=O)[C@H]3NC(=O)[C@H](NC(O)[C@@H]4NC(=O)[C@@H](NC2=O)c2cc(O)cc(c2)Oc2cc1ccc2O)c1ccc(O)c(c1)-c1c(O)cc(O)cc1[C@H](C(=O)O)NC3=O (some centres not stated) : 54

====

System: Influenza B virus
Test: Antiviral activity against Influenza B virus B/Ned/537/05 infected in MDCK cells after 3 days by MTS assay
Format: functional, organism-based
Settings: B/Ned/537/05, MDCK, 72 h
OUTCOME MEASURE: EC50 (µM)
Respond with the bare value in µM.

Lab note: measured EC50 of CCCCCCCCSC1=C(SCCCCCCCC)C(=O)N(Cc2cn(C3C(=O)N[C@@H]4Cc5ccc(c(Cl)c5)Oc5cc6cc(c5O)Oc5ccc(cc5Cl)[C@@H](O[C@@H]5O[C@H](CO)[C@@H](O)[C@H](O)[C@H]5NC(C)=O)[C@H]5NC(=O)[C@H](NC(O)[C@@H]6NC(=O)[C@@H](NC4=O)c4cc(O)cc(c4)Oc4cc3ccc4O)c3ccc(O)c(c3)-c3c(O)cc(O)cc3[C@H](C(=O)O)NC5=O)nn2)C1=O (some centres not stated) was 7.2

====

Field: EC50. Provide a value for each of the molecules that follow.
Tested on: H3N2 subtype
Test: Antiviral activity against Influenza A virus A/HK/7/87(H3N2) infected in MDCK cells assessed as reduction in virus-induced cytopathic effect after 3 days by microscopic method
Assay type: functional, organism-based
Details: A/Hong Kong/7/1987(H3N2), 72 h

Recorded result, CCCCCCSC1=C(SCCCCCC)C(=O)N([C@H]2C(=O)N[C@@H]3Cc4ccc(c(Cl)c4)Oc4cc5cc(c4O)Oc4ccc(cc4Cl)[C@@H](O[C@@H]4O[C@H](CO)[C@@H](O)[C@H](O)[C@H]4NC(C)=O)[C@H]4NC(=O)[C@H](NC(O)[C@@H]5NC(=O)[C@@H](NC3=O)c3cc(O)cc(c3)Oc3cc2ccc3O)c2ccc(O)c(c2)-c2c(O)cc(O)cc2[C@H](C(=O)O)NC4=O)C1=O (stereo partly specified) , EC50: > 100 µM

EC50 in this record for CC(=O)N[C@H]1[C@H](O[C@@H]2c3ccc(c(Cl)c3)Oc3cc4cc(c3O)Oc3ccc(cc3Cl)C[C@H]3NC(=O)C(n5cc(COCCOCCOCCOCCN6C(=O)C(SCCOCCOCCOCCO)=C(SCCOCCOCCOCCO)C6=O)nn5)c5ccc(O)c(c5)Oc5cc(O)cc(c5)[C@H](NC3=O)C(=O)N[C@H]4C(O)N[C@H]3C(=O)N[C@H]2C(=O)N[C@@H](C(=O)O)c2cc(O)cc(O)c2-c2cc3ccc2O)O[C@H](CO)[C@@H](O)[C@@H]1O (stereo partly specified) : > 100 µM

Note to self: EC50 recorded for CCCCCCCCCCCCSC1=C(SCCCCCCCCCCCC)C(=O)N(CCOCCOCCOCCOCc2cn(C3C(=O)N[C@@H]4Cc5ccc(c(Cl)c5)Oc5cc6cc(c5O)Oc5ccc(cc5Cl)[C@@H](O[C@@H]5O[C@H](CO)[C@@H](O)[C@H](O)[C@H]5NC(C)=O)[C@H]5NC(=O)[C@H](NC(O)[C@@H]6NC(=O)[C@@H](NC4=O)c4cc(O)cc(c4)Oc4cc3ccc4O)c3ccc(O)c(c3)-c3c(O)cc(O)cc3[C@H](C(=O)O)NC5=O)nn2)C1=O (stereo partly specified) was > 100 µM

The reported EC50 of the molecule CCCSC1=C(SCCC)C(=O)N(Cc2cn(C3C(=O)N[C@@H]4Cc5ccc(c(Cl)c5)Oc5cc6cc(c5O)Oc5ccc(cc5Cl)[C@@H](O[C@@H]5O[C@H](CO)[C@@H](O)[C@H](O)[C@H]5NC(C)=O)[C@H]5NC(=O)[C@H](NC(O)[C@@H]6NC(=O)[C@@H](NC4=O)c4cc(O)cc(c4)Oc4cc3ccc4O)c3ccc(O)c(c3)-c3c(O)cc(O)cc3[C@H](C(=O)O)NC5=O)nn2)C1=O (stereo partly specified) was > 100 µM

Lab note: CC(=O)N[C@H]1[C@H](O[C@@H]2c3ccc(c(Cl)c3)Oc3cc4cc(c3O)Oc3ccc(cc3Cl)C[C@H]3NC(=O)[C@H](n5cc(CCOc6c7cc(C(C)(C)C)cc6Cc6cc(C(C)(C)C)cc(c6O)Cc6cc(C(C)(C)C)cc(c6O)Cc6cc(C(C)(C)C)cc(c6O)C7)nn5)c5ccc(O)c(c5)Oc5cc(O)cc(c5)[C@H](NC3=O)C(=O)N[C@H]4C(O)N[C@H]3C(=O)N[C@H]2C(=O)N[C@@H](C(=O)O)c2cc(O)cc(O)c2-c2cc3ccc2O)O[C@H](CO)[C@@H](O)[C@@H]1O (stereo partly specified) gave EC50 of > 100 µM

Lab book: EC50 of CCCCCCCCCCOCc1cn([C@H]2C(=O)N[C@@H]3Cc4ccc(c(Cl)c4)Oc4cc5cc(c4O)Oc4ccc(cc4Cl)[C@@H](O[C@@H]4O[C@H](CO)[C@@H](O)[C@H](O)[C@H]4NC(C)=O)[C@H]4NC(=O)[C@H](NC(O)[C@@H]5NC(=O)[C@@H](NC3=O)c3cc(O)cc(c3)Oc3cc2ccc3O)c2ccc(O)c(c2)-c2c(O)cc(O)cc2[C@H](C(=O)O)NC4=O)nn1 (stereo partly specified) noted as > 100 µM

====

I'd appreciate it if you could supply EC50 values for the items below.
Test system: Influenza B virus
Test: Antiviral activity against Influenza B virus B/Ned/537/05 infected in MDCK cells after 3 days by MTS assay
Type: functional, organism-based
Conditions: B/Ned/537/05, MDCK, 72 h

# EC50 of CCCCCCCCCCCCSC1=C(SCCCCCCCCCCCC)C(=O)N([C@H]2C(=O)N[C@@H]3Cc4ccc(c(Cl)c4)Oc4cc5cc(c4O)Oc4ccc(cc4Cl)[C@@H](O[C@@H]4O[C@H](CO)[C@@H](O)[C@H](O)[C@H]4NC(C)=O)[C@H]4NC(=O)[C@H](NC(O)[C@@H]5NC(=O)[C@@H](NC3=O)c3cc(O)cc(c3)Oc3cc2ccc3O)c2ccc(O)c(c2)-c2c(O)cc(O)cc2[C@H](C(=O)O)NC4=O)C1=O (stereo partly drawn) = > 100 µM

For this molecule ( CCCCCCCCCCCCSC1=C(SCCCCCCCCCCCC)C(=O)N(CCOCCOCCOCCOCc2cn(C3C(=O)N[C@@H]4Cc5ccc(c(Cl)c5)Oc5cc6cc(c5O)Oc5ccc(cc5Cl)[C@@H](O[C@@H]5O[C@H](CO)[C@@H](O)[C@H](O)[C@H]5NC(C)=O)[C@H]5NC(=O)[C@H](NC(O)[C@@H]6NC(=O)[C@@H](NC4=O)c4cc(O)cc(c4)Oc4cc3ccc4O)c3ccc(O)c(c3)-c3c(O)cc(O)cc3[C@H](C(=O)O)NC5=O)nn2)C1=O (stereo partly drawn) ), measured EC50 is > 100 µM

EC50 reported for this molecule CCCCCCSC1=C(SCCCCCC)C(=O)N([C@H]2C(=O)N[C@@H]3Cc4ccc(c(Cl)c4)Oc4cc5cc(c4O)Oc4ccc(cc4Cl)[C@@H](O[C@@H]4O[C@H](CO)[C@@H](O)[C@H](O)[C@H]4NC(C)=O)[C@H]4NC(=O)[C@H](NC(O)[C@@H]5NC(=O)[C@@H](NC3=O)c3cc(O)cc(c3)Oc3cc2ccc3O)c2ccc(O)c(c2)-c2c(O)cc(O)cc2[C@H](C(=O)O)NC4=O)C1=O (stereo partly drawn) : > 100 µM

====

Assay: Cytotoxicity against MDCK cells assessed as alteration in cell morphology after 3 days by microscopic method
Format: cell-based, Canis lupus familiaris
Conditions: dog
Would you kindly list MCC at 72 h for each of these compounds?
Could you give me the number in µM? Just the number is fine.

Short answer for CCCCOCc1cn(CCOCCOCCOCCOCc2cn([C@H]3C(=O)N[C@@H]4Cc5ccc(c(Cl)c5)Oc5cc6cc(c5O)Oc5ccc(cc5Cl)[C@@H](O[C@@H]5O[C@H](CO)[C@@H](O)[C@H](O)[C@H]5NC(C)=O)[C@H]5NC(=O)[C@H](NC(O)[C@@H]6NC(=O)[C@@H](NC4=O)c4cc(O)cc(c4)Oc4cc3ccc4O)c3ccc(O)c(c3)-c3c(O)cc(O)cc3[C@H](C(=O)O)NC5=O)nn2)nn1 (some centres not stated) : MCC at 72 h was 100

MCC at 72 h measured on CCCCCCOCc1cn(CCOCCOCCOCCOCc2cn([C@H]3C(=O)N[C@@H]4Cc5ccc(c(Cl)c5)Oc5cc6cc(c5O)Oc5ccc(cc5Cl)[C@@H](O[C@@H]5O[C@H](CO)[C@@H](O)[C@H](O)[C@H]5NC(C)=O)[C@H]5NC(=O)[C@H](NC(O)[C@@H]6NC(=O)[C@@H](NC4=O)c4cc(O)cc(c4)Oc4cc3ccc4O)c3ccc(O)c(c3)-c3c(O)cc(O)cc3[C@H](C(=O)O)NC5=O)nn2)nn1 (some centres not stated) = 100

For CCCCSC1=C(SCCCC)C(=O)N([C@H]2C(=O)N[C@@H]3Cc4ccc(c(Cl)c4)Oc4cc5cc(c4O)Oc4ccc(cc4Cl)[C@@H](O[C@@H]4O[C@H](CO)[C@@H](O)[C@H](O)[C@H]4NC(C)=O)[C@H]4NC(=O)[C@H](NC(O)[C@@H]5NC(=O)[C@@H](NC3=O)c3cc(O)cc(c3)Oc3cc2ccc3O)c2ccc(O)c(c2)-c2c(O)cc(O)cc2[C@H](C(=O)O)NC4=O)C1=O (some centres not stated) the compound record lists MCC at 72 h as 4

Lab note: CCCCCCCCO[C@@H]1[C@@H](OCCCCCCCC)[C@@H](OC)O[C@H](COCCOCCOCCOCCOCc2cn([C@H]3C(=O)N[C@@H]4Cc5ccc(c(Cl)c5)Oc5cc6cc(c5O)Oc5ccc(cc5Cl)[C@@H](O[C@@H]5O[C@H](CO)[C@@H](O)[C@H](O)[C@H]5NC(C)=O)[C@H]5NC(=O)[C@H](NC(O)[C@@H]6NC(=O)[C@@H](NC4=O)c4cc(O)cc(c4)Oc4cc3ccc4O)c3ccc(O)c(c3)-c3c(O)cc(O)cc3[C@H](C(=O)O)NC5=O)nn2)[C@H]1OCc1ccc(OC)cc1 (some centres not stated) gave MCC at 72 h of 20
